subject of test: SsTyrH (heme-dependent L-tyrosine hydroxylase)
test protocol: UV–vis substrate titration
observation type: pKd
Scale: negative log10 of molar concentration, which is what pKd denotes.

Lookup result for N[C@@H](Cc1ccc(O)cc1)C(=O)O [Tyr, L-tyrosine] ; measured pKd: 3.96
